tested on: control Gram-negative E. coli 25922 strain; test: Antibacterial activity, microbroth dilution MIC, E. coli 25922; type: cell-based, Escherichia coli; conditions: Escherichia coli; E. coli 25922, microbroth dilution; read-out: MIC, 25922
Structures can show the parent of a compound that is named as a salt.
Endpoint name: MIC

Look over these answered cases.
>  <Compound>
CCc1c(-c2ccc(OC)cc2C)[nH]c(=O)c(C(=O)O)c1O

>  <MIC>
12.5 to 150 µg/mL

$$$$
>  <Compound>
CCc1cc(C(=O)O)c(=O)[nH]c1-c1ccc(N2C[C@@H]3CCC[C@]3(C(=O)O)C2)cc1.O=C(O)C(F)(F)F

>  <MIC>
12.5 to 150 µg/mL

$$$$
>  <Compound>
CCc1c(-c2ccc(N3C[C@@H]4[C@H](C3)[C@H]4NC)cc2)[nH]c(=O)c(C(=O)O)c1O [Cpd 270, hydrochloride]

>  <MIC>
< 1 µg/mL

$$$$
>  <Compound>
CCc1cc(C(=O)O)c(=O)[nH]c1-c1ccc(N2C[C@H]3CC[C@@H](N)[C@H]3C2)cc1.O=C(O)C(F)(F)F

>  <MIC>
12.5 to 150 µg/mL

$$$$
>  <Compound>
CCc1cc(C(=O)O)c(=O)[nH]c1-c1ccc(N2CCC(C)(N)C2)cc1.O=C(O)C(F)(F)F (centres unmarked)

>  <MIC>
3.5 to 12.5 µg/mL

$$$$
>  <Compound>
CCc1cc(C(=O)O)c(=O)[nH]c1-c1ccc(N2CC(OC3CCCCO3)C2)cc1 (centres unmarked)

>  <MIC>
12.5 to 150 µg/mL

$$$$

Let's switch to this compound now.
## Input Kindly indicate its recorded MIC. Item: `CCc1c(-c2ccc(N3CCC(O)CC3)cc2)[nH]c(=O)c(C(=O)O)c1O`
## Output 12.5 to 150 µg/mL

* * *

# MIC values compiled below
test system: control Gram-negative E. coli 25922 strain; experiment: Antibacterial activity, microbroth dilution MIC, E. coli 25922; type: cell-based, Escherichia coli; settings: Escherichia coli; E. coli 25922, microbroth dilution; read-out: MIC, 25922

Look over these answered cases.
>  <Compound>
CCc1c(-c2ccc(N3CCCC3)cc2)[nH]c(=O)c(C(=O)O)c1O

>  <Target>
control Gram-negative E. coli 25922 strain

>  <MIC>
3.5 to 12.5 µg/mL

$$$$
>  <Compound>
CCc1cc(C(=O)O)c(=O)[nH]c1-c1ccc(N2CCC(CNCc3ccccn3)C2)cc1 (centres unmarked)

>  <Target>
control Gram-negative E. coli 25922 strain

>  <MIC>
1 to 3.5 µg/mL

$$$$
>  <Compound>
CCc1c(-c2ccc(N3CCCC3)cc2OC)[nH]c(=O)c(C(=O)O)c1O

>  <Target>
control Gram-negative E. coli 25922 strain

>  <MIC>
12.5 to 150 µg/mL

$$$$
>  <Compound>
CC(C)c1c(-c2ccc(N(C)C)cc2)[nH]c(=O)c(C(=O)O)c1O

>  <Target>
control Gram-negative E. coli 25922 strain

>  <MIC>
3.5 to 12.5 µg/mL

$$$$

## Input Kindly indicate its recorded MIC. Item: `CCc1cc(C(=O)O)c(=O)[nH]c1-c1ccc(N2CCCC2)c(C)c1`
## Output 12.5 to 150 µg/mL

## Input Kindly indicate its recorded MIC. Item: `CCc1c(-c2ccc(N3C[C@H]4C[C@@H](NCc5ccccc5)C[C@H]4C3)cc2)[nH]c(=O)c(C(=O)O)c1O`
## Output 12.5 to 150 µg/mL

## Input Kindly indicate its recorded MIC. Item: `CCc1cc(C(=O)O)c(=O)[nH]c1-c1ccc(N2C[C@@H]3[C@H](C2)[C@H]3NCc2ccccc2)cc1`
## Output < 1 µg/mL

## Input Kindly indicate its recorded MIC. Item: `CCc1cc(C(=O)O)c(=O)[nH]c1-c1ccc(N2C[C@H]3CN(Cc4ccccc4)C[C@H]3C2)cc1.Cl`
## Output 3.5 to 12.5 µg/mL

## Input Kindly indicate its recorded MIC. Item: CCc1cc(C(=O)O)c(=O)[nH]c1-c1ccc(N2CC3CCCNC3C2)cc1.Cl (centres unmarked)
## Output 12.5 to 150 µg/mL
